// cross-study collection: pIC50 for Serine/threonine-protein kinase mTOR (Homo sapiens)
pIC50: −log10 of the molar value.
Given measured pIC50, output class 1 if it is greater than or equal to 6 and class 0 if not.

| molecular-string | assigned-category |
| --- | --- |
| Cc1nc(N)nc(-c2c(Nc3ccn[nH]3)nc3ccc(-c4cccc(F)c4)cn23)n1 | class 1 |
| Nc1ncnc2c1c(-c1cnc3ccccc3c1)nn2CCCCCCC(=O)NO | class 1 |
| COC[C@H]1OC(=O)/C(=C/N(CCCN(C)C)CCCN(C)C)C2=C(O)C(=O)C3=C([C@H](OC(C)=O)C[C@]4(C)[C@@H](O)CC[C@@H]34)[C@]21C | class 0 |
| COc1ccc2c(c1)c(/C=C1\Oc3cc(O)cc(O)c3C1=O)c(C)n2CCN(C)C | class 1 |
| CNC(=O)Nc1ccc(-c2nc(N3CC4CCC(C3)O4)c3cnn(C4CCN(C(=O)OC(C)(C)C)CC4)c3n2)cc1 | class 1 |
| O=c1cc(N2CCOCC2)nc(Cc2nc3c(Br)cccc3o2)[nH]1 | class 0 |
| Cn1cc(/C=C2\Oc3cccc(O)c3C2=O)c2c(-c3ccc(C(=O)N4CCN(CCO)CC4)cc3)ccnc21 | class 1 |
| O=c1cc(N2CCOCC2)nc(Cc2nc3cccc(F)c3o2)[nH]1 | class 0 |
| O=C(Nc1ccc(C(F)(F)F)cc1)Nc1nc2ccccc2[nH]1 | class 0 |
